- tgt: D-dopachrome decarboxylase (Homo sapiens)
- Sequence (P30046 whole entry): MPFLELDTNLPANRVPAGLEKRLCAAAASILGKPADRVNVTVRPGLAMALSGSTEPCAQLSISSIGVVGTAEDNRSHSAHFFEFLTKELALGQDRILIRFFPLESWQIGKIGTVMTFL
measured.attribute: Ki (µM)
Report as a plain number; the unit µM is understood.

[ask] GET Ki where system = D-dopachrome decarboxylase (Homo sapiens) and item = O=C(O)c1cccc(-c2cc(C(=O)O)ncc2C(=O)O)c1
[reply] 33

* * *

- tgt: Macrophage migration inhibitory factor (Homo sapiens, UniProt P14174)
- Sequence (P14174 whole entry): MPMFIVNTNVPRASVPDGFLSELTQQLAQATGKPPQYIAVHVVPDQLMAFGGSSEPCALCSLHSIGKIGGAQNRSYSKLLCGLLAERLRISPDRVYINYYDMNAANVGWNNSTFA
- method.notes: Inhibition of human recombinant MIF incubated for 30 mins by microplate reader assay
Rule: IC50 below 9 µM gives YES, anything at or above gives NO.

[ask] Take the compound O=C(CSc1cc(-c2ccccc2)ncn1)c1ccc(O)cc1O and say whether its IC50 is less than 9 µM.
[reply] NO

[ask] Take the compound CC(=O)NS(=O)(=O)c1ccc(NC(=O)CC(C)(C)C)cc1 and say whether its IC50 is less than 9 µM.
[reply] YES

[ask] Take the compound Cc1c(C(=O)c2ccc(Cl)cc2)oc2cc(N)ccc12 and say whether its IC50 is less than 9 µM.
[reply] NO

[ask] Take the compound O=c1oc2ccc(F)cc2cc1-c1nc(-c2cccs2)no1 and say whether its IC50 is less than 9 µM.
[reply] YES

[ask] Take the compound CCC(CC)c1nnc(NC(=O)Oc2ccccc2)s1 and say whether its IC50 is less than 9 µM.
[reply] NO

[ask] Take the compound O=C(CC1(O)C(=O)N(Cc2ccccc2Cl)c2ccccc21)C1Cc2ccccc2OC1=O (stereo unspecified) and say whether its IC50 is less than 9 µM.
[reply] YES
